- Assay Name: qHTS drug screen for cell cycle checkpoint inhibitors in PARPi-resistant BRCA-mutant ovarian cancer cell lines. (AID 1963452)
- Condition Details: PEO1/OlaR viability, CellTiter-Glo luminescence, 96 h; measured here: PEO1 parental Z-AUC; stronger effect = lower value
Param label: returns Criterion met when Z-AUC < 0.3, returns Criterion not met otherwise, including exact equality.

[[record]]
molecule = "Cc1cnc(Nc2ccc(F)cc2Cl)nc1-c1c[nH]c(C(=O)NC(CO)c2cccc(Cl)c2)c1 (stereo not given)"
discrete_label = "Criterion met"

[[record]]
molecule = "O=C(C(c1ccccc1)c1ccccc1)N1CCN(CC(O)COc2cccc3ncccc23)CC1 (stereo not given)"
discrete_label = "Criterion not met"

[[record]]
molecule = "CCOc1cc(C(=O)N2CCC(N3CCN(C)CC3)CC2)ccc1Nc1ncc2c(n1)N(C1CCCC1)c1ccccc1C(=O)N2C"
discrete_label = "Criterion not met"

[[record]]
molecule = "COc1ncc(Nc2ncc([C@H](C)N3CCN(S(C)(=O)=O)CC3)cc2-c2nc(C)nc(N)n2)cc1F"
discrete_label = "Criterion met"

[[record]]
molecule = "CCCCc1nc2cc(/C=C/C(=O)NO)ccc2n1CCN(CC)CC"
discrete_label = "Criterion met"

[[record]]
molecule = "CN1CCN(C(=O)c2ccc3cc(CCNc4ncnc5ccc(C#N)cc45)ccc3c2)CC1"
discrete_label = "Criterion met"

[[record]]
molecule = "C=CC(=O)Nc1cccc(Nc2nc(Nc3ccc(N4CCN(C(C)=O)CC4)cc3OC)ncc2C(F)(F)F)c1"
discrete_label = "Criterion not met"

[[record]]
molecule = "COc1ccc(N(C)c2nc(C)nc3ccccc23)cc1"
discrete_label = "Criterion met"

[[record]]
molecule = "COc1cc2ncnc(Nc3cccc(Cl)c3F)c2cc1OC(=O)N1CCN(C)C[C@H]1C"
discrete_label = "Criterion met"


----------
- Assay Name: Primary qHTS for inhibitors of nuclear receptor binding SET domain protein 2 (NSD2) in an RCH-ACV wild type WT cells (2C) (AID 1645877); also: nearly all actives have a fitted effect of over 70% in size
- Condition Details: RCH-ACV (leukaemia line) NSD2 WT (2C) viability, CellTiter-Glo, 72 h; series mostly up to 44.9 µM
- Excerpt: Assay Provider: Jonathan D. Licht, MD University of Florida College of Medicine, Gainesville, FL Mutations in epigenetic regulators are common in relapsed pediatric acute lymphoblastic leukemia (ALL). Here, we uncovered the mechanism underlying the relapse of ALL driven by an activating mutation of the NSD2 histone methyltransferase (p.E1099K). […] Correction of this mutation restored glucocorticoid sensitivity. […]
Results filed as inconclusive are left out. Calls of active or inactive are those of the source. Calls follow the shape of the dose curve; as a rule, active = well fitted inhibition curve with a large enough effect; inconclusive = small, poorly fitted or top-dose-only effect; inactive = no such curve, though single readings can be large or run the other way.
Labels: Yes = active, No = inactive

[[record]]
compound = "CC(C)=CCC[C@](C)(O)[C@H]1CC[C@]2(C)[C@@H]1[C@H](O)CC1[C@@]3(C)CC[C@H](O)C(C)(C)[C@@H]3[C@@H](O[C@@H]3O[C@H](CO)[C@@H](O)[C@H](O)[C@H]3O[C@@H]3O[C@H](CO)[C@@H](O)[C@H](O)[C@H]3O)C[C@]12C (stereo partly drawn)"
discrete_label = "No"

[[record]]
compound = "Cc1cc(C)c(Nc2ccnc(Nc3ccc(C#N)cc3)n2)c(C)c1"
discrete_label = "Yes"

[[record]]
compound = "COC(=O)CCC(=O)OC[C@]1(C)CCC[C@@]2(C)C3CC[C@]4(C)C=CC3(CCC12)C4 (stereo partly drawn)"
discrete_label = "No"

[[record]]
compound = "CC(=O)NC1=NN(C(C)=O)C(C)(c2ccccc2)S1 (stereo not drawn)"
discrete_label = "Yes"

[[record]]
compound = "CC(C)CCC1(O)C(=O)C(C)(C)C(O[C@@H]2O[C@H](CO)[C@@H](O)[C@H](O)[C@H]2O)C(C)(C)C1O (stereo partly drawn)"
discrete_label = "No"

[[record]]
compound = "O=C(c1cn(Cc2cncn2Cc2ccc(Br)cc2)cc1-c1cccc2ccccc12)N1CCOCC1"
discrete_label = "Yes"

[[record]]
compound = "C[C@H](NC(c1cccc2[nH]c(=O)c(=O)[nH]c12)P(=O)(O)O)c1ccc(Br)cc1 (stereo partly drawn)"
discrete_label = "No"

[[record]]
compound = "CC(C)C[C@H](CC(=O)NO)C(=O)N[C@@H](Cc1ccc2ccccc2c1)C(=O)N[C@@H](C)C(=O)NCCN"
discrete_label = "No"

[[record]]
compound = "C/C=C/C1=CC2=C(CO1)C(=O)C(C)(O)C(OC(=O)c1c(C)cc(OC)cc1O)C2 (stereo not drawn)"
discrete_label = "Yes"

[[record]]
compound = "COC(=O)C1=CO[C@@H](O[C@@H]2O[C@H](CO[C@@H]3O[C@H](COC(=O)/C=C/c4cc(OC)c(O)c(OC)c4)[C@@H](O)[C@H](O)[C@H]3O)[C@@H](O)[C@H](O)[C@H]2O)[C@@H]2C(CO)=CC[C@H]12"
discrete_label = "No"

[[record]]
compound = "C=C1C(=O)O[C@H](CCC)[C@H]1C(=O)O"
discrete_label = "No"

[[record]]
compound = "Cc1cnc(NC(=O)Nc2cc(Br)c(C)cc2OCC2CNCCO2)cn1 (stereo not drawn)"
discrete_label = "Yes"

[[record]]
compound = "C=C[C@@]12COC(=O)C(=C)C1[C@@H](O)[C@H](C(=C)C(=O)OC)[C@@H](OC(=O)C(=C)CO)C2 (stereo partly drawn)"
discrete_label = "Yes"

[[record]]
compound = "Cc1cccc(/C=N/Nc2cc(N3CCOCC3)n3nc(-c4ccncc4)cc3n2)c1"
discrete_label = "Yes"

[[record]]
compound = "CC1(C)CCC[C@@]2(C)C1[C@H](OC(=O)/C=C/C=C/C(=O)O)C=C1COC(=O)[C@@]12O (stereo partly drawn)"
discrete_label = "No"

[[record]]
compound = "O=C(c1cccc(Cl)c1F)N1CCN(Cc2cccc(Nc3nccs3)n2)CC1"
discrete_label = "Yes"

[[record]]
compound = "C/C1=C\\CCC(C)CCO[C@@H]2O[C@H](CO[C@@H]3OC[C@H](O)[C@H](O)[C@H]3OC1=O)[C@@H](O)[C@H](O)[C@H]2O (stereo partly drawn)"
discrete_label = "No"

[[record]]
compound = "CCCCCCOc1cc2c(cc1N(C)c1ncc(C(=O)O)cn1)C(C)(C)CCC2(C)C"
discrete_label = "No"

[[record]]
compound = "CC1CCCCN1S(=O)(=O)c1ccc(N2CCCC2=O)cc1 (stereo not drawn)"
discrete_label = "No"

[[record]]
compound = "CC1CCC2(OC1)OC1CC3C4CCC5C[C@@H](O[C@@H]6O[C@H](CO[C@@H]7OC[C@@H](O)[C@H](O)[C@H]7O)[C@H](O)[C@H](O)[C@H]6O)CC[C@]5(C)C4CC[C@]3(C)C1C2C (stereo partly drawn)"
discrete_label = "No"

[[record]]
compound = "c1ccc(-c2csc(N3CCOCC3)n2)cc1"
discrete_label = "No"

[[record]]
compound = "CC(C)C1=CC2C(CC[C@]2(C)O)[C@](C)(O)CC1 (stereo partly drawn)"
discrete_label = "No"

[[record]]
compound = "COc1cc(Br)c(S(=O)(=O)Nc2ccc(C(F)(F)F)c(O[C@@H]3CCN(C)C3)c2)cc1OC"
discrete_label = "No"


----------
- Assay Name: P-glycoprotein substrates identified in KB-8-5-11 adenocarcinoma cell line, qHTS therapeutic library screen (AID 1346987); also: nearly all actives have a fitted effect of over 65% in size
- Condition Details: KB-8-5-11 (P-gp overexpressing) viability, CellTiter-Glo, 72 h; series mostly up to 44.5 µM
Records with an inconclusive call do not appear. Calls of active or inactive are those of the source. The call rests on the fitted dose curve; in most records, active means well fitted inhibition curve with a large enough effect; inconclusive means small, poorly fitted or top-dose-only effect; inactive means flat fitted curve, though single readings scatter.
Outcomes: active, inactive

[[record]]
compound = "CC(O)/C=C/C1OC(=O)CC1Nc1ccc(C(=O)O)cc1 (configuration not stated)"
discrete_label = "inactive"

[[record]]
compound = "C/C=C/c1ccc2c(c1)[C@@H](C)[C@H](c1ccc(O)cc1)O2"
discrete_label = "inactive"

[[record]]
compound = "CC(=O)C=C=C1C(C)(C)CC(O[C@@H]2O[C@H](CO)[C@@H](O)[C@H](O)[C@H]2O)CC1(C)O (some centres not stated)"
discrete_label = "inactive"

[[record]]
compound = "C=C(C(=O)OC)C1C(O)CC2(C)C(O)CCC(=O)C2C1O (configuration not stated)"
discrete_label = "inactive"

[[record]]
compound = "CC1CCCCN1S(=O)(=O)c1ccc(N2CCCC2=O)cc1 (configuration not stated)"
discrete_label = "inactive"

[[record]]
compound = "O=C1CSc2ccccc2N1Cc1cccc(C(F)(F)F)c1"
discrete_label = "inactive"

[[record]]
compound = "O=[N+]([O-])c1cccc2[nH]c(CNc3nc(N4CCOCC4)nc4c3ncn4-c3ccsc3)nc12"
discrete_label = "active"

[[record]]
compound = "CCc1cc(CN2CC(C(=O)O)C2)sc1-c1noc(-c2ccc(Oc3ccccc3)cc2)n1"
discrete_label = "inactive"

[[record]]
compound = "Cc1cc(C(N)=O)ccc1-n1c(CCC(=O)O)ccc1-c1ccc(-n2ccnc2)cc1"
discrete_label = "inactive"

[[record]]
compound = "C/C(=C\\CCC1(C)C2CCC(C2)C1(C)O)C(=O)O (configuration not stated)"
discrete_label = "inactive"

[[record]]
compound = "Cc1cc(Nc2cc(N3CCN(C)CC3)nc(/C=C/c3ccccc3)n2)n[nH]1"
discrete_label = "active"

[[record]]
compound = "CN1CCC(Nc2nc(Nc3ccc(Oc4ccccc4)cc3)c3c(=O)[nH]cc(Br)c3n2)CC1"
discrete_label = "active"

[[record]]
compound = "C(#Cc1nc2ncccc2nc1OCCN1CCCC1)c1ccccc1"
discrete_label = "active"

[[record]]
compound = "CC1(C)CCCC2(C)C=C(C(=O)O)C(O)CC12 (configuration not stated)"
discrete_label = "inactive"

[[record]]
compound = "C[C@@H]1C(=O)O[C@H]2C[C@]34[C@H]5C[C@@H](C(C)(C)C)[C@]36[C@@H](OC(=O)[C@H]6O)O[C@]4(C(=O)O5)[C@]21O"
discrete_label = "inactive"

[[record]]
compound = "C=C(C)C1CCC2(C(=O)O)CCC3(C(=O)O)C(CCC4C5(C)CCC(O)C(C)(C(=O)O)C5CCC43C)C12 (configuration not stated)"
discrete_label = "inactive"

[[record]]
compound = "C[C@@H]1CC[C@]2(C(=O)O)CC[C@]3(C)C(=CCC4[C@@]5(C)C[C@@H](O)[C@H](O)[C@@](C)(CO)C5CC[C@]43C)C2[C@]1(C)O (some centres not stated)"
discrete_label = "inactive"

[[record]]
compound = "O=C(Nc1ccc(S(=O)(=O)Nc2ccccc2Cl)c(Cl)c1)c1ccccn1"
discrete_label = "inactive"

[[record]]
compound = "C=CC1(C)C=C2CCC3C(C)(C)C(O[C@@H]4O[C@@H](CO)[C@H](O)[C@H]4O)CCC3(C)C2CC1O[C@@H]1O[C@H](C)[C@H](O)[C@H](O)[C@H]1O (some centres not stated)"
discrete_label = "inactive"

[[record]]
compound = "CC(=O)O[C@H]1C[C@@](O)(C(C)C)C2[C@@H](OC(=O)c3ccc(O)cc3)C[C@@]3(C)O[C@H]3C[C@]21C (some centres not stated)"
discrete_label = "inactive"

[[record]]
compound = "CC1=CC(=O)CC(C)(C)C1CCC(C)O[C@@H]1O[C@H](CO[C@@H]2OC[C@@H](O)[C@H](O)[C@H]2O)[C@@H](O)[C@H](O)[C@H]1O (some centres not stated)"
discrete_label = "inactive"

[[record]]
compound = "CC(C)c1cc(C(=O)N2CC[C@H](NC(=O)C3CC3)C2)n[nH]1"
discrete_label = "inactive"

[[record]]
compound = "CC1=CC(=O)CC(C)(C)[C@@]1(O)CC[C@@H](C)O[C@@H]1O[C@H](CO)[C@@H](O)[C@H](O)[C@H]1O"
discrete_label = "inactive"

[[record]]
compound = "CC1=CC(=O)CC2C1(O)CCC(C)C21CC(c2ccoc2)OC1=O (configuration not stated)"
discrete_label = "inactive"

[[record]]
compound = "CC(=O)OC1C(c2ccccc2)CCC(c2ccccc2)C1OC(C)=O (configuration not stated)"
discrete_label = "inactive"

[[record]]
compound = "C/C(=C/CO)CC[C@@H]1[C@@](C)(O)CCC2C(C)(C)CCC[C@]21C (some centres not stated)"
discrete_label = "inactive"

[[record]]
compound = "O=C(CO)[C@@H](O)[C@H](O[C@@H]1O[C@H](CO)[C@H](O)[C@H](O)[C@H]1O)[C@H](O)CO"
discrete_label = "inactive"

